# assay.text: In vitro intrinsic clearance in mouse liver microsomes at 1 uM by LC-MS analysis
# Format: ADME
# conditions: read-out: CLH
value.type: microsomal CLint at 1 µM (µL/min/mg)

Nc1ncnc2c1sc1cc(-c3cccc(NC(=O)N4CCCC4)c3)ccc12 : 56

I. Nc1ncnc2c1sc1cc(-c3ccccc3)ccc12
II. CCNC(=O)Nc1cccc(-c2ccc3c(c2)sc2c(N)ncnc23)c1
III. Nc1ncnc2c1sc1cc(-c3cccc(C(=O)NCCc4cccnc4)c3)ccc12
IV. CCNC(=O)Nc1ncc(-c2cc(-c3c(C)cc(OC)cc3C)nc(-c3cnccn3)n2)s1
V. Cn1c2cc(-c3ccccc3)ccc2c2ncnc(N)c21
Q. Put these in order: smallest microsomal CLint at 1 µM first, largest last. Your answer should be the labels, listed in the requested order.
A. IV, II, III, V, I

Hey, just so you know, these numbers are from ChEMBL document CHEMBL3390844.
